Hi there, I'd appreciate the recorded IC50 for every entry that follows.
- TARGET_SYSTEM: KRas^G12C (Homo sapiens, UniProt P01116, G12C)
- Construct: Biotinylated KRas (corresponding to amino acids 1-169, produced at Accelegan Inc.); biotin (biotinylated); purchased Accelegan Inc
- Sequence (P01116 1-169 isoform P01116-2 G12C): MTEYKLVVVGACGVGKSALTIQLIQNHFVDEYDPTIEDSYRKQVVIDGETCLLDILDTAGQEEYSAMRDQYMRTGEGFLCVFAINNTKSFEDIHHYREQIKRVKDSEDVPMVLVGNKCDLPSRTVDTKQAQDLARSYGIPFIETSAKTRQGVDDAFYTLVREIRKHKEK
- TEST_DESCRIPTION: KRas binding assay (TR-FRET tracer displacement), KRas G12C
- CONDITION_PARAMETERS: TR-FRET tracer displacement, KRas G12C

{"MOLECULE": "O=C1NC(=O)[C@]2(CCCN(c3nc(OC[C@@]45CCCN4C[C@H](F)C5)nc4c(F)c(-c5c(C6CC6)c(Cl)cc6[nH]ncc56)ncc34)C2)N1 [Example 780]", "TARGET_SYSTEM": "KRas^G12C (Homo sapiens, UniProt P01116, G12C)", "IC50": "< 2 nM"}
{"MOLECULE": "O=C1NCC2(CCCN(c3nc(OCC45CCCN4CCC5)nc4c(F)c(-c5cc(O)cc(Cl)c5C5CC5)ncc34)C2)N1 (stereo not drawn) [Example 741]", "TARGET_SYSTEM": "KRas^G12C (Homo sapiens, UniProt P01116, G12C)", "IC50": "< 2 nM"}

Proceed to the following item.
Q: Give KRas^G12C (Homo sapiens, UniProt P01116, G12C) IC50 for C[C@@H]1C[C@@H]1c1c(Cl)cc(O)cc1-c1ncc2c(N3CCCC4(CNS(=O)(=O)N4)C3)nc(OC[C@@]34CCCN3C[C@H](F)C4)nc2c1F (stereo in doubt) [Example 929]
Result: < 2 nM

====

For each entry below, report its IC50 value.
- TARGET_SYSTEM: KRas^G12R (Homo sapiens, UniProt P01116, G12R)
- Construct: Biotinylated KRas (corresponding to amino acids 1-169, produced at Accelegan Inc.); biotin (biotinylated); purchased Accelegan Inc
- Sequence (P01116 1-169 isoform P01116-2 G12R): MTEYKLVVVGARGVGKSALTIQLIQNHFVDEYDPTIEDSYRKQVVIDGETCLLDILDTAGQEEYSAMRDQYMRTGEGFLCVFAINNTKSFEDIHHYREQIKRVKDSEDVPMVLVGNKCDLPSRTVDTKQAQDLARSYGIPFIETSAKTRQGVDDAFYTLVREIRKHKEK
- TEST_DESCRIPTION: KRas binding assay (TR-FRET tracer displacement), KRas G12R

Answered cases to consult:
{"COMPOUND_STRUCTURE": "Fc1c(-c2cccc3cccc(F)c23)ncc2c(C3=CCCCC3)nc(OCC34CCCN3CCC4)nc12", "IC50": "> 100000 nM"}
{"COMPOUND_STRUCTURE": "CCc1c(F)ccc2cc(O)cc(-c3ncc4c(N5CCCc6nc(C(=O)N(C)C)ccc6C5)nc(OC[C@@]56CCCN5C[C@H](F)C6)nc4c3F)c12", "IC50": "< 2 nM"}
{"COMPOUND_STRUCTURE": "O=C1NC(=O)[C@]2(CCCN(c3nc(OC[C@@]45CCCN4C[C@H](F)C5)nc4c(F)c(-c5c(C6CC6)c(Cl)cc6[nH]ncc56)ncc34)C2)N1", "IC50": "< 2 nM"}

Then this compound:
Q: Need IC50 of `CCc1c(F)ccc2cc3[nH]ncc3c(-c3ncc4c(N5CCC[C@]6(C5)NC(=O)NC6=O)nc(OCC56CCCN5CCC6)nc4c3F)c12` , thanks.
Result: < 2 nM

====

- TARGET_SYSTEM: KRas^G12V (Homo sapiens, UniProt P01116, G12V)
- Construct: Biotinylated KRas (corresponding to amino acids 1-169, produced at Accelegan Inc.); biotin (biotinylated); purchased Accelegan Inc
- Sequence (P01116 1-169 isoform P01116-2 G12V): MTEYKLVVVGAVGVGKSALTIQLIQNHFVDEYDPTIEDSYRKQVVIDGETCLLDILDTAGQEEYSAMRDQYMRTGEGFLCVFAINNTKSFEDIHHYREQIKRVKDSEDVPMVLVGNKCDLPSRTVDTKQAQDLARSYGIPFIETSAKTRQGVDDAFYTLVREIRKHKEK
- TEST_DESCRIPTION: KRas binding assay (TR-FRET tracer displacement), KRas G12V
For each entry below, report its IC50 value.

Examples with answers:
{"COMPOUND": "CCc1c(F)ccc2cc(O)cc(-c3ncc4c(NCc5cc(C(=O)N(C)C)nn5C[C@H]5C[C@H](O)C5)nc(OC[C@@]56CCCN5C[C@H](F)C6)nc4c3F)c12", "QUANTITY_NAME": "IC50", "TEST_VALUE": "6 nM"}
{"COMPOUND": "CCNC(=O)OC[C@@H]1CC[C@]2(COc3nc(N4CCC[C@@](C)(O)C4)c4cnc(-c5cc(O)cc6ccc(F)c(CC)c56)c(F)c4n3)CCCN12", "QUANTITY_NAME": "IC50", "TEST_VALUE": "< 2 nM"}
{"COMPOUND": "CCc1c(F)ccc2cc(O)cc(-c3ncc4c(N5CC6CCC(CC6)C5)nc(OC[C@@]56CCCN5C[C@H](F)C6)nc4c3F)c12", "QUANTITY_NAME": "IC50", "TEST_VALUE": "35 nM"}

Here's the next entry for you.
Q: GET /values?readout=IC50&item= CCc1c(F)ccc2cc(O)cc(-c3ncc4c(NCC5(C)CNS(=O)(=O)N5)nc(OC[C@@]56CCCN5C[C@H](F)C6)nc4c3F)c12 (stereo partly shown)
Result: < 2 nM

====

I'd appreciate it if you could supply inhibition at 0.01 µM values for the items below.
- TARGET_SYSTEM: KRas^Q61H (Homo sapiens, UniProt P01116, Q61H)
- Construct: Biotinylated KRas (corresponding to amino acids 1-169, produced at Accelegan Inc.); biotin (biotinylated); purchased Accelegan Inc
- Sequence (P01116 1-169 isoform P01116-2 Q61H): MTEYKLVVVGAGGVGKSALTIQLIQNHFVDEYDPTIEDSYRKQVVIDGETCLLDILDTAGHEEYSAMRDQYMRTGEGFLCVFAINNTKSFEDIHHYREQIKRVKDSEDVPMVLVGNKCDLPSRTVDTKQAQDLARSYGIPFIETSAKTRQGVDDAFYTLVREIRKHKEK
- TEST_DESCRIPTION: KRas binding assay (TR-FRET tracer displacement), KRas Q61H
- CONDITION_PARAMETERS: single point, 10 nM compound, TR-FRET
One number for each entry, in %.

Previously resolved entries follow.
{"COMPOUND": "CCc1c(F)ccc2cc(O)cc(-c3ncc4c(N5CCCC6(C5)NC(=O)NC6=O)nc(OC[C@]56CCCN5[C@H](COC(=O)N(C)C)CC6)nc4c3F)c12 (some centres unmarked)", "TARGET_SYSTEM": "KRas^Q61H (Homo sapiens, UniProt P01116, Q61H)", "inhibition at 0.01 µM / %": 99}
{"COMPOUND": "CCc1c(F)ccc2cc(O)cc(-c3ncc4c(N5CCC[C@]6(C5)C[C@@H](O)C6)nc(OC[C@@]56CCCN5[C@H](COC(=O)N(C)C)CC6)nc4c3F)c12", "TARGET_SYSTEM": "KRas^Q61H (Homo sapiens, UniProt P01116, Q61H)", "inhibition at 0.01 µM / %": 69}

Answer for every listed entry: what is its inhibition at 0.01 µM? The entries follow.
1. CCc1c(F)ccc2cc(O)cc(-c3ncc4c(N5CCCn6nc(C(=O)N(C)C)c(C)c6C5)nc(OC[C@@]56CCCN5C[C@H](F)C6)nc4c3F)c12
2. CCc1c(F)ccc2cc(O)cc(-c3ncc4c(N5CCCC6(CNS(=O)(=O)N6)C5)nc(OC[C@]56CCCN5[C@H](COC(=O)N(C)C)CC6)nc4c3F)c12 (some centres unmarked)
3. CCc1c(F)ccc2cc(O)cc(-c3ncc4c(N5CCC[C@@](C)(O)C5)nc(OC[C@@]56CCCN5[C@H](COC(=O)NC(C)C)CC6)nc4c3F)c12
4. CCc1c(F)ccc2cc3[nH]ncc3c(-c3ncc4c(N5CCC[C@@](C)(O)C5)nc(OC[C@@]56CCCN5C[C@H](F)C6)nc4c3F)c12
5. CCc1c(F)ccc2cc(O)cc(-c3ncc4c(N5CCCC6(CC(O)C6)C5)nc(OCC5(CN(C)C)CC5)nc4c3F)c12 (centres unmarked)
6. CCc1c(F)ccc2cc(O)cc(-c3ncc4c(N5CCCC6(CCS(=O)(=O)N6)C5)nc(OC[C@@]56CCCN5C[C@H](F)C6)nc4c3F)c12 (some centres unmarked)

Result:
97
98
96
80
88
100

Each of the following entries comes with a recorded value; kindly state inhibition at 0.01 µM for each.
1. CCc1c(F)ccc2cc(O)cc(-c3ncc4c(N5CCCCC(C#N)C5)nc(OC[C@@]56CCCN5C[C@H](F)C6)nc4c3F)c12 (some centres unmarked)
2. CCc1c(F)ccc2cc(O)cc(-c3ncc4c(N5CCC(O)c6nn(C(=O)N(C)C)cc6C5)nc(OC[C@@]56CCCN5C[C@H](F)C6)nc4c3F)c12 (some centres unmarked)

Result:
1. 70
2. 95

Q: What value of inhibition at 0.01 µM has been reported for the following compound? `CN(C)C(=O)OC[C@@H]1CC[C@@]2(COc3nc(N4CCC[C@@](C)(O)C4)c4cnc(-c5cc(O)cc6ccc(F)c(F)c56)c(F)c4n3)CCCN12`
Result: 79

====

- TARGET_SYSTEM: KRas^G12V (Homo sapiens, UniProt P01116, G12V)
- Construct: Biotinylated KRas (corresponding to amino acids 1-169, produced at Accelegan Inc.); biotin (biotinylated); purchased Accelegan Inc
- TEST_DESCRIPTION: KRas binding assay (TR-FRET tracer displacement), KRas G12V
QUANTITY_NAME: IC50

Each compound below has a reported value. Please supply its IC50.
1. C=C1CN2CCCC2(COc2nc(N3C[C@@H]4C[C@H](C3)[C@H](O)C4)c3cnc(-c4cc(O)cc5ccc(F)c(CC)c45)c(F)c3n2)C1 (some centres unmarked) [Example 800]
2. C[C@@H]1C[C@@H]1c1c(Cl)cc(O)cc1-c1ncc2c(N3CCC[C@]4(C3)NC(=O)NC4=O)nc(OCC34CCCN3C/C(=C\F)C4)nc2c1F (some centres unmarked) [Example 937]
3. CCc1c(F)ccc2cc(O)cc(-c3ncc4c(N5CCCn6nc(C(=O)N(C)C)cc6C5)nc(N5CC(C)(N)C5)nc4c3F)c12 [Example 532]

Result:
< 2 nM
< 2 nM
15 nM

Hey, can you go through the list below and give me IC50 for every item?
1. C=C1CN2CCCC2(COc2nc(N3CCCC4(CC(=O)N4)C3)c3cnc(-c4cc(O)cc5ccc(F)c(CC)c45)c(F)c3n2)C1 (centres unmarked) [Example 943]
2. CCc1c(F)ccc2cc(O)cc(-c3ncc4c(N5C[C@@H]6C[C@H](C5)[C@H](O)C6)nc(OCC56CCCN5CC5(CC5)C6)nc4c3F)c12 (some centres unmarked) [Example 931]

Result:
1: < 2 nM; 2: < 2 nM

Sourced from patent US20260015350A1
